measurement-protocol: qHTS assay to test for compound auto fluorescence at 535 nm (green) in HEK293 cells (AID 720680); further: on the % scale 0 is the no-effect control and ±100 the full control effect
experimental-conditions: green autofluorescence 485/535 nm; series mostly up to 91.3 µM
Calls of active or inactive are those of the source. The call rests on the fitted dose curve; in most records, active means well fitted curve in the direction sought with a large enough effect in the repeat runs; inconclusive means weak or mixed curves; inactive means flat fitted curve, though single readings scatter.
experimental-readout: fluorescence, % of fluorescein

Some compounds with recorded fluorescence, % of fluorescein:
Value of fluorescence, % of fluorescein reported for the compound `O=C(O)CCn1c2c(c3ccccc31)C[C@H](NS(=O)(=O)c1ccc(F)cc1)CC2` is inactive

For this compound ( `CO[C@H]1C=CO[C@@]2(C)Oc3c(C)c(O)c4c(O)c(cc(O)c4c3C2=O)NC(=O)/C(C)=C\C=C/[C@H](C)[C@H](O)[C@@H](C)[C@@H](O)[C@@H](C)[C@H](OC(C)=O)[C@@H]1C` ), measured fluorescence, % of fluorescein is inactive

Reported fluorescence, % of fluorescein of COC(=O)CC(C)CCC=C(C)C (stereo not given) : inactive

Reported fluorescence, % of fluorescein ( `CCCCCCCCCCCC(=O)N(CC)CC` ) = inactive

Quick note, fluorescence, % of fluorescein for CC(COC(=O)c1ccccc1)OC(=O)c1ccccc1 (stereo not given) landed at inactive

The recorded fluorescence, % of fluorescein for `O[C@@H](c1cc(C(F)(F)F)nc2c(C(F)(F)F)cccc12)[C@H]1CCCCN1` is inactive

Field fluorescence, % of fluorescein (entry `O=C1c2c(O)ccc([N+](=O)[O-])c2C(=O)c2c([N+](=O)[O-])ccc(O)c21` ) reads inactive

Recorded fluorescence, % of fluorescein (compound `Nc1cc(Cl)c([N+](=O)[O-])cc1O` ): inactive

New cases:
Notebook: CC(CN(C)C)CN1c2ccccc2CCc2ccccc21 (stereo not given) , fluorescence, % of fluorescein read as 0.0583% [at 18.6 µM] (inactive)

Recorded result, `SCCCCCCCCS` , fluorescence, % of fluorescein: inactive

----------
measurement-protocol: Caspase-3/7 induction in HepG2 cells by small molecules, qHTS assay (AID 1346978); further: nearly all actives have a fitted effect of over 15% in size
experimental-conditions: HepG2 caspase-3/7 activation, Caspase-Glo luminescence, 17 h; series mostly up to 92.4 µM
Inconclusive results are not listed. Activity calls are given as the source filed them. Calls follow the shape of the dose curve; as a rule, active = well fitted activation curve with a large enough effect in the repeat runs; inconclusive = weak or mixed curves; inactive = flat fitted curve, though single readings scatter.
Hello, when you answer, please use one of the following outcomes: true = active, false = inactive

INPUT: Record request — test call for `CCCCCCS`
OUTPUT: false

INPUT: Which result was noted for this compound in the test: `CCCCOc1ccc(C(=O)CCN2CCCCC2)cc1`
OUTPUT: false

INPUT: Can you look up the reported call for Clc1ccc(C(Cn2ccnc2)OCc2ccsc2Cl)c(Cl)c1 (centres undefined) for me?
OUTPUT: false

INPUT: I'd appreciate the recorded outcome for `CCN(CC)c1cccc(C)c1` from this test.
OUTPUT: false

INPUT: // return assay outcome for `C=C[C@](C)(O)CC[C@@H]1[C@@]2(C)CCCC(C)(C)[C@@H]2CC[C@@]1(C)O`
OUTPUT: true

Others:
INPUT: State the result this test recorded for `CCCCN(C)C` .
OUTPUT: false

INPUT: Look up the recorded call for `CCN=c1cc2oc3cc(NCC)c(C)cc3c(-c3ccccc3C(=O)OCC)c-2cc1C` in this test.
OUTPUT: true

INPUT: Test call for this compound, please: `O=C1c2c(O)ccc([N+](=O)[O-])c2C(=O)c2c([N+](=O)[O-])ccc(O)c21`
OUTPUT: false

INPUT: Could you check what this test reported for `O=C(Nc1ccc(Cl)c(Cl)c1)c1cc(Cl)cc(Cl)c1O` ?
OUTPUT: false

INPUT: Hi, do you know how `ClC/C=C\CCl` came out in this test?
OUTPUT: false

INPUT: How did this test come out for CSc1ccc2c(c1)N(CCC1CCCCN1C)c1ccccc1S2 (centres undefined) ?
OUTPUT: true

INPUT: Hi, sorry to bother you, what did the test record for `c1ccc(Sc2ccccc2)cc1` ?
OUTPUT: false

INPUT: Hi team, can someone confirm the assay call for `O=C1OC(=O)c2cccc3cccc1c23` ?
OUTPUT: false

----------
measurement-protocol: qHTS RealTime-Glo MT Cell Viability Assay in HEK293 cells - 8 hour (AID 1224887); further: nearly all actives have a fitted effect of over 50% in size
experimental-conditions: RealTime-Glo luminescence; series mostly up to 76.8 µM
Inconclusive results are not listed. Activity calls are given as the source filed them. Calls come from the whole dose curve; as a rule, active = well fitted cell-killing curve with a large enough effect in the repeat runs; inconclusive = weak or mixed curves, or effect the other way; inactive = flat fitted curve, though single readings scatter.
Tick one outcome: true (active), false (inactive)

Answered cases to consult:
INPUT: Per the assay record, what outcome was assigned to `CCN(CC)c1ccc(N)cc1` ?
OUTPUT: true

INPUT: What outcome does the record of this test show for C=CC(C)C#N (configuration not stated) ?
OUTPUT: false

INPUT: Which result was noted for this compound in the test: `CCCSS/C(CCO)=C(\C)N(C=O)Cc1cnc(C)nc1N`
OUTPUT: false

INPUT: Hi team, can someone confirm the assay call for `CC(C)c1cccc(C(C)C)c1N1C(=O)c2ccc(O)cc2C1=O` ?
OUTPUT: false

INPUT: Call for entry COC(=O)C1=C(C)NC(C)=C(C(=O)OCCCN2CCC(c3ccccc3)(c3ccccc3)CC2)C1c1cccc([N+](=O)[O-])c1 (configuration not stated) :
OUTPUT: true

INPUT: // outcome(item) with item = CC(NCCC(c1ccccc1)c1ccccc1)c1ccccc1 (configuration not stated)
OUTPUT: true

INPUT: Tell me the assay call for `C[Si](C)O[Si](C)C` please.
OUTPUT: false

INPUT: I would be grateful if you could indicate the recorded call for `CCOC(/C=C(\C)CCC=C(C)C)OCC` .
OUTPUT: false

INPUT: I'd appreciate the recorded outcome for `C/C=C/C(=O)C1=C(C)CCCC1(C)C` from this test.
OUTPUT: false

INPUT: Status in this test for `C/C=C/c1ccc(OC)c(OC)c1` ?
OUTPUT: false

New cases:
INPUT: Lab log entry: `CN1CN(C)CN(C)C1` — outcome as called in the assay?
OUTPUT: false

INPUT: Would you mind telling me which call this test gave `OCCCCl` ?
OUTPUT: false

INPUT: Recorded call for `Cc1c(-c2ccc(O)cc2)n(Cc2ccc(OCCN3CCCCCC3)cc2)c2ccc(O)cc12` ?
OUTPUT: true

INPUT: Record lookup: outcome of this test for `Nc1ncnc2c1ncn2[C@@H]1O[C@H](COP(=O)(O)O)[C@@H](O)[C@H]1O` ?
OUTPUT: false

INPUT: Please indicate how the test categorized `ClC/C=C\CCl` .
OUTPUT: false

INPUT: Returns: the outcome recorded for `O=S(=O)(O)CCCN1CCOCC1` in this assay.
OUTPUT: false

INPUT: Which outcome was assigned to `Cc1cccc(C)n1` in this test?
OUTPUT: false

----------
measurement-protocol: qHTS RealTime-Glo MT Cell Viability Assay in HEK293 cells - 16 hour (AID 1224872); further: nearly all actives have a fitted effect of over 50% in size; further: potency means the concentration at half of the fitted maximal effect
experimental-conditions: RealTime-Glo luminescence; series mostly up to 76.8 µM
Results filed as inconclusive are left out. The source made the active and inactive calls. Calls follow the shape of the dose curve; as a rule, active = well fitted cell-killing curve with a large enough effect in the repeat runs; inconclusive = weak or mixed curves, or effect the other way; inactive = flat fitted curve, though single readings scatter.
experimental-readout: Potency

Completed entries (count: 5):
Reported Potency for CCCCN(CCCC)CCC(O)c1cc2c(Cl)cc(Cl)cc2c2cc(C(F)(F)F)ccc12 (stereo not given) was inactive

Input CC(C)=CCCC(C)O (stereo not given) . Output Potency: inactive

The recorded Potency for CCC(C)C(=O)OC (stereo not given) is inactive

Entry under test: `c1ccc(Sc2ccccc2)cc1` . Its Potency was inactive

Lab book: Potency of `c1cc[nH]c1` noted as inactive

Next:
Entry under test: `O=C(Oc1ccccc1)c1cccc(C(=O)Oc2ccccc2)c1` . Its Potency was inactive

Potency recorded for this compound, `C=C(C)C(=O)OCCC[Si](Cl)(Cl)Cl` , is inactive

// Potency lookup, compound = CCCC(C)CCC(C)=O (stereo not given) , result: inactive

Form: compound = `CCN(CC)c1ccc(N)cc1` ; Potency = 22.5 µM (active)

Entry `C[Si](C)(C)Cl` ; Potency = inactive

The compound listed as `Cn1cnc2ncnc(N)c21` has a reported Potency of inactive

Memo: CCCCCCCCCCOCC(O)CN (stereo not given) , reported Potency: 23.9 µM (active)

Notebook: `CC[N+](CC)(CC)Cc1ccccc1` , Potency read as inactive

The compound listed as `CC(C)(C)c1cc(/C=C2\SC(=N)NC2=O)cc(C(C)(C)C)c1O` shows Potency equal to 43.6 µM (active)

Sample `CN(C)CCN1CCOCC1` ; Potency observed: inactive

Potency recorded for this compound, `CC(C)(c1cc(Br)c(OCCO)c(Br)c1)c1cc(Br)c(OCCO)c(Br)c1` , is 17 µM (active)

Potency for `S=C(SSSSSSC(=S)N1CCCCC1)N1CCCCC1` is 13.6 µM (active)

What the record says about CC1CCCNC1 (stereo not given) : Potency is inactive

Lab note: `CCc1c(Br)c(Br)c(Br)c(Br)c1Br` gave Potency of inactive

Reported Potency ( CCCC(O)C(O)CO (stereo not given) ) = inactive

Noted for `CC(=O)Nc1ccc(O)cc1` : its Potency reads inactive
